Molecular target: SARS-CoV-2 spike (S) protein, Omicron (SARS-CoV-2 Omicron variant) (UniProt P0DTC2)
Assay: SPR
Conditions: 5' di-DTPA (2 dithiol phosphoramidite) in printed sequence; not stated whether present in SPR analyte
Outcome Measure: pKd
Quick note: pKd values are minus log10 of concentrations in mol/L.

Request: Can you look up the measured pKd of GGGGGCGTCAAGCGGGGTCACATCGGAGTAGGGAATCTTG [C9t (SPR)] for me?
Result: 7.84
